Provide the reported drug-induced phospholipidosis of each item.
Test system: A549-ACE2
Experiment: drug-induced phospholipidosis relative to tamoxifen; higher = more phospholipidosis
Settings: 0.833333 µM; 72 h
Be sure to follow the number with its unit.

Record Nc1nccc(Oc2ccc(NC(=O)c3c[nH]cc(-c4ccc(F)cc4)c3=O)cc2F)c1Cl [metatinib] , field drug-induced phospholipidosis: -0.924%

Record OCCN1CCN(CC/C=C2/c3ccccc3Sc3ccc(C(F)(F)F)cc32)CC1 [flupentixol] , field drug-induced phospholipidosis: 2.4%

Record CCn1c2ccccc2c2cc(CNC)ccc21 [PhiKan-083] , field drug-induced phospholipidosis: 2.71%

Record C(#Cc1nc2ncccc2nc1OCCN1CCCC1)c1ccccc1 [GK921] , field drug-induced phospholipidosis: 2.54%
